# assay system: T1, recombinant mf IL1RAP aa21-367 (cynomolgus monkey (Macaca fascicularis), UniProt A0A2K5X5J5 21-367)
# T1 construct: also called cynomolgus monkey IL1RAP; cyno IL1RAP
# T1 sequence: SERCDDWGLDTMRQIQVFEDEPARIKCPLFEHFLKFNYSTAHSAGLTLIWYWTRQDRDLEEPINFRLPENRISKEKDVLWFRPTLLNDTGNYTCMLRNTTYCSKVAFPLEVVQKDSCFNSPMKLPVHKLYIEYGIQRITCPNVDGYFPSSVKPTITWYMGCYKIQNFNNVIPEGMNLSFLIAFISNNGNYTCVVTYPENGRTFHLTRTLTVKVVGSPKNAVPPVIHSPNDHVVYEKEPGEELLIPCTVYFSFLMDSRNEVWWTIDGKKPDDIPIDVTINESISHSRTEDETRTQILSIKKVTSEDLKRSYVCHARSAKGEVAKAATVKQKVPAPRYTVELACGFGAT
# experiment: binding ELISA, coated recombinant mf IL1RAP aa21-367
readout kind: IC50 (µg/mL)
Write the answer as a number in µg/mL, unit excluded.

Lookup: Requested read-out: IC50. Entry: h48D2 VH1:VL1 (antibody, human IgG1, kappa, L234A L235A, V domains shown, Humanized; also called VL1:VH1) VH: EVQLEESGGGLVKPGGSLRLSCAASGPSLSHFDITWVRQAPGKGLEWVSTISPGVSTYYASWAKSRFTISRDNSKNTLYLQMNSLRAEDTAVYYCARGGVGSSWKAFDLWGRGTLVTVSS VL: DIVMTQSPSSLSASVGDRVTITCQASESISTALAWYQQKPGKAPKLLIYKASTLPSGVPSRFSGSGSGTDFTLTISSLQPEDFATYYCQQGFSSGNVHNAFGGGTKVVIKR
Found: 0.0226

Lookup: So what does the record say about IC50 for h48D2 VH1:VL3 (antibody, human IgG1, kappa, L234A L235A, V domains shown, Humanized; also called VL3:VH1) VH: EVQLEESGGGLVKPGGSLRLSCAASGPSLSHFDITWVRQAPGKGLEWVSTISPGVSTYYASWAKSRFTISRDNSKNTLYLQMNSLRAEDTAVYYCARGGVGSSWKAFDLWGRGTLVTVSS VL: DILLTQTPSVVSASVGDRVTITCQASESISTALAWYQQKPGQAPRLLIYKASTLPSGVPSRFRGSGSGTDFTLTITSLQPEDFATYYCQQGFSSGNVHNAFGGGTRLEIKR ?
Found: 0.018

Lookup: Returns the measured IC50 for the input binder. Input: h48D2 VH4:VL1 (antibody, human IgG1, kappa, L234A L235A, V domains shown, Humanized; also called VL1:VH4) VH: QVQLQESGPGLVKPSETLSLTCTVSGPSLSHFDITWIRQPPGKGLEWIGTISPGVSTYYASWAKSRFTISVDTSKNQFSLKLTSVTAADTATYYCARGGVGSSWKAFDLWGPGTLVTVSS VL: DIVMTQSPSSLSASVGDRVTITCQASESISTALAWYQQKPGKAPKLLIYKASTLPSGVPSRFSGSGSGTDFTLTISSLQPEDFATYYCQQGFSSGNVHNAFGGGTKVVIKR
Found: 0.0316

Lookup: If you can, please state the reported IC50 value of h48D2 VH3:VL2 (antibody, human IgG1, kappa, L234A L235A, V domains shown, Humanized; also called VL2:VH3) VH: EVQLLESGGGLVLPGGSLRLSCAASGPSLSHFDITWVRQAPGKGLEWVSTISPGVSTYYASWAKSRFTISRDNSKNTLYLQMSSLRAEDTAVYYCARGGVGSSWKAFDLWGLGTTVTVSS VL: QIVLTQSPATLSASVGDRVTITCQASESISTALAWYQQKPGKAPKLLIYKASTLPSGVPSRFSGSGSGTEFTLTISSLQPDDSATYYCQQGFSSGNVHNAFGQGTKLEIKR .
Found: 0.0274

Lookup: Would you kindly share the measured IC50 for h48D2 VH4:VL2 (antibody, human IgG1, kappa, L234A L235A, V domains shown, Humanized; also called VL2:VH4) VH: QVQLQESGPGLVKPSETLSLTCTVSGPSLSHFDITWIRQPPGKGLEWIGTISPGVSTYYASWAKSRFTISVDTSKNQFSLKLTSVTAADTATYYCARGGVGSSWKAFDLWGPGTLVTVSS VL: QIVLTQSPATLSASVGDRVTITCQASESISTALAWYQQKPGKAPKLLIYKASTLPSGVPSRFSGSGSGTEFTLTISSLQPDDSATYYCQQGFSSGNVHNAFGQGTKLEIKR ?
Found: 0.0291

Lookup: # input binder: h48D2 VH1:VL2 (antibody, human IgG1, kappa, L234A L235A, V domains shown, Humanized; also called VL2:VH1) VH: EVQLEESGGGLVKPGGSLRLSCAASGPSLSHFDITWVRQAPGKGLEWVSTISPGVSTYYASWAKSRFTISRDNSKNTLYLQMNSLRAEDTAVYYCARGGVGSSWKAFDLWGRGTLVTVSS VL: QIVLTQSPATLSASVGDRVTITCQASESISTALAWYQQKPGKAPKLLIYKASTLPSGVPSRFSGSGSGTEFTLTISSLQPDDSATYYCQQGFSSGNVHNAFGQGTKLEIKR ; wanted: its IC50
Found: 0.0198

Lookup: Would you kindly share the measured IC50 for h48D2 VH5:VL4 (antibody, human IgG1, kappa, L234A L235A, V domains shown, Humanized; also called VL4:VH5; humanized 48D2 variant VH5:VL4) VH: QEQLEESGGGLVKPGGTLSLTCTVSGPSLSHFDITWIRQAPGSGLEWIGTISPGVSTYYASWAKSRVTISVDTSLNTVSLKLSSVTAADTATYFCARGGVGSSWKAFDLWGPGTLVTISS VL: ELVMTQSPSSVSASVGDRVTITCQASESISTALAWYQQKPGKAPKLLIYKASTLPSGVPSRFSGSGSGTDFTLTINSLQPEDFATYYCQQGFSSGNVHNAFGGGTKVEIKR ?
Found: 0.028

Lookup: GET /values?readout=IC50&item= h48D2 VH2:VL5 (antibody, human IgG1, kappa, L234A L235A, V domains shown, Humanized; also called VL5:VH2) VH: EVQLVESGGALVQPGGSLRLSCIVSGPSLSHFDITWFRQAPGKGLEWVATISPGVSTYYASWAKSRFTISTDTSKNTLFLQMDSLRAEDTAVYYCARGGVGSSWKAFDLWGPGTLVTVSS VL: APVLTQSPATLEASVGDRVTITCQASESISTALAWYQQKPGQPPKLLIYKASTLPSGVPSRFSGSGSGTEFTLTISDLESDDAATYYCQQGFSSGNVHNAFGGGTEVVVKR
Found: 0.0279

Lookup: Query (binder): h48D2 VH4:VL3 (antibody, human IgG1, kappa, L234A L235A, V domains shown, Humanized; also called VL3:VH4) VH: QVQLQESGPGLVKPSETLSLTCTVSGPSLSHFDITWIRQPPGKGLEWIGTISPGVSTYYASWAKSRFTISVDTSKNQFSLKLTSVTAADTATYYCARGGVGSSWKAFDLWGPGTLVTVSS VL: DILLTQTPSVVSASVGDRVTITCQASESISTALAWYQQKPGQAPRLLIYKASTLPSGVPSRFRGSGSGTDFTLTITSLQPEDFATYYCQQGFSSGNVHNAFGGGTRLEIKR ; field requested: IC50
Found: 0.0302

Lookup: For the binder h48D2 VH2:VL1 (antibody, human IgG1, kappa, L234A L235A, V domains shown, Humanized; also called VL1:VH2) VH: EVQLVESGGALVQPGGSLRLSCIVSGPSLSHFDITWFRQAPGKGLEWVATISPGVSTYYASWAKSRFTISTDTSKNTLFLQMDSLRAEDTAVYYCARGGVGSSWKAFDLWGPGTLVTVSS VL: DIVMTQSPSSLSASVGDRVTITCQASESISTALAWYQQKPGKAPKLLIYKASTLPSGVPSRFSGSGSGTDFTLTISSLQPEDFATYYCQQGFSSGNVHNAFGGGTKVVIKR , what IC50 is on record?
Found: 0.0279
